Where do these numbers come from? They come from BindingDB's records for doi:10.1016/1074-5521(95)90124-8.

- study-system: UniProt Q95J97
- assay-summary: Inhibition Assay
- condition-summary: pH 7.5; 30 °C
Counter-ions that a name gives are not always drawn.
Entries and their measured pKi follow.
Notebook: values listed as pKi are -log10 of the concentration (mol/L).

O=C(N[C@@H]1CNCCC[C@H]1OC(=O)c1ccc(C(=O)c2c(O)cccc2C(=O)O)cc1)c1ccc(O)cc1 [4'',6''-Dideoxybalanol, 6]    8.47
O=C(N[C@@H]1CNCCC[C@H]1OC(=O)c1cc(O)c(C(=O)c2c(O)cccc2C(=O)O)c(O)c1)c1ccccc1 [5'-Deoxybalanol, 7]    8.46
O=C(N[C@@H]1CNCCC[C@H]1OC(=O)c1cc(O)c(C(=O)c2ccccc2O)c(O)c1)c1ccc(O)cc1 [14''-Decarboxybalanol hydrochloride, 5]    7.96

Here's the next entry for you.
Q: Find the measured pKi: item `O=C(N[C@@H]1CNCCC[C@H]1OC(=O)c1cc(O)c(C(=O)c2ccccc2C(=O)O)c(O)c1)c1ccc(O)cc1` , target or system UniProt Q95J97.
Result: 8.41

###

- study-system: Protein kinase C beta type (Rattus norvegicus)
- assay-summary: Inhibition Assay
- condition-summary: 30 °C
Structures can show the parent of a compound that is named as a salt.
test-readout: pKi
When answering, recall that pKi equals minus log10 of the concentration in mol/L, and write that number alone.

Some compounds with recorded pKi:
O=C(N[C@@H]1CNCCC[C@H]1OC(=O)c1cc(O)c(C(=O)c2ccccc2O)c(O)c1)c1ccc(O)cc1 [14''-Decarboxybalanol hydrochloride, 5]    5.30
O=C(N[C@@H]1CNCCC[C@H]1OC(=O)c1cc(O)c(C(=O)c2c(O)cccc2C(=O)O)c(O)c1)c1ccc(O)cc1 [Acyclic Balanol Analog (-)-1]    8.28

Next item in the queue.
Q: Record request: pKi value, item O=S(ONCCNC/C=C/c1ccc(Br)cc1)c1cccc2cnccc12 (stereo not given)
Result: 4.50

###

- study-system: Protein kinase C beta type (Rattus norvegicus, UniProt P68403)
- Sequence (P68403 whole entry): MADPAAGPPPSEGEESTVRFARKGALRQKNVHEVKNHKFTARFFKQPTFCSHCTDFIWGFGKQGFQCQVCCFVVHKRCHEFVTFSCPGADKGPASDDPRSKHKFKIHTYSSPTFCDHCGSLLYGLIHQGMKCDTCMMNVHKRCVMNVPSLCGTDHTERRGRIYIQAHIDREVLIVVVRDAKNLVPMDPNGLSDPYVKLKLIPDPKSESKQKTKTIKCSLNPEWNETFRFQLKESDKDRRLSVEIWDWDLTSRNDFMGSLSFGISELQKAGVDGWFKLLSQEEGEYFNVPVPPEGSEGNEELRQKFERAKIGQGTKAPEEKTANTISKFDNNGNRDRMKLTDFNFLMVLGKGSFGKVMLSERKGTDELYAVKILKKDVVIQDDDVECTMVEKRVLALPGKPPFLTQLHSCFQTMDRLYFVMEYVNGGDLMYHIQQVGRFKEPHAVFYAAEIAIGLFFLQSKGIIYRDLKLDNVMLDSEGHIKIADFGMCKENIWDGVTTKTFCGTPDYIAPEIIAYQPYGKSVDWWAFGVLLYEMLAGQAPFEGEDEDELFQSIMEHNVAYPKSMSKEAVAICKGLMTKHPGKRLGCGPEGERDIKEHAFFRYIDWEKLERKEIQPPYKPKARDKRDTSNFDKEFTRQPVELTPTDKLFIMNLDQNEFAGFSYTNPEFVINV
- assay-summary: Inhibition Assay
- condition-summary: pH 7.5; 30 °C
test-readout: Ki (µM)
Field format: number, assumed µM, no unit text.

Sample records with Ki:
O=C(N[C@@H]1CNCCC[C@H]1OC(=O)c1ccc(C(=O)c2c(O)cccc2C(=O)O)cc1)c1ccc(O)cc1    0.08
O=C(N[C@@H]1CNCCC[C@H]1OC(=O)c1cc(O)c(C(=O)c2c(O)cccc2C(=O)O)c(O)c1)c1ccccc1    0.069

With those in mind, consider the next compound.
Q: Entry `O=C(N[C@@H]1CNCCC[C@H]1OC(=O)c1cc(O)c(C(=O)c2ccccc2C(=O)O)c(O)c1)c1ccc(O)cc1` has what Ki?
Result: 0.64

###

# pKi listing for each entry below
- study-system: cAMP-dependent protein kinase (Oryctolagus cuniculus)
- assay-summary: Inhibition Assay
- condition-summary: pH 7.5
Worth noting: pKi values are minus log10 of concentrations stated in mol/L.

O=S(ONCCNC/C=C/c1ccc(Br)cc1)c1cccc2cnccc12 (centres undefined) [H-89, 10]    7.32
CCCCCCOC(=O)[C@@]1(O)CC2O[C@]1(C)n1c3ccccc3c3c4c(c5c6ccccc6n2c5c31)C(=O)NC4 [KT5720, 9]    7.25

As a next step, examine the compound that follows.
Q: Please give the measured pKi for this compound: `CN[C@@H]1C[C@H]2O[C@@](C)([C@@H]1OC)n1c3ccccc3c3c4c(c5c6ccccc6n2c5c31)C(=O)NC4`
Result: 7.46

###

- study-system: UniProt P68403
- assay-summary: Inhibition Assay
- condition-summary: pH 7.5; 30 °C
test-readout: IC50 (µM)
Express the result in µM but write the number alone.

O=C(N[C@@H]1CNCCC[C@H]1OC(=O)c1cc(O)c(C(=O)c2c(O)cccc2C(=O)O)c(O)c1)c1ccccc1    0.095
O=C(N[C@@H]1CNCCC[C@H]1OC(=O)c1cc(O)c(C(=O)c2ccccc2C(=O)O)c(O)c1)c1ccc(O)cc1    0.834

Q: Quick one: IC50 for `O=C(N[C@@H]1CNCCC[C@H]1OC(=O)c1ccc(C(=O)c2c(O)cccc2C(=O)O)cc1)c1ccc(O)cc1` ?
Result: 0.111
